Attribution: patent US10059703B2

# Tested on: Septoria tritici
# Assay Method Text: Fungicidal activity: leaf blotch of wheat, one-day protectant and three-day curative tests on wheat plants
# Assay type: in vivo
# Condition Parameters: Zymoseptoria tritici, 72 h; Three-Day Curative (3 DC), 100 ppm, wheat plants (variety Yuma); read-out: SEPTTR 100 PPM 3 DC (% Disease Control rating)
Measured pest or weed control at 100 ppm, listed per entry.
Reported Metric: pest or weed control at 100 ppm

| Compound | Reported Result |
| --- | --- |
| CC(=O)/N=c1\c(F)cn(S(=O)(=O)c2ccc(C(C)C)cc2)c(=O)n1C [Compound F33] | 26 to 50% |
| COc1ccc(S(=O)(=O)n2cc(F)/c(=N\C(C)=O)n(C)c2=O)cc1 [Compound F31] | 76 to 100% |
| Cc1cc(S(=O)(=O)n2cc(F)/c(=N\Cc3ccccc3F)n(C)c2=O)c(C)cc1Cl [Compound F58] | 0 to 25% |
| [2H]C([2H])([2H])/N=c1\c(F)cn(S(=O)(=O)c2ccccc2)c(=O)n1C([2H])([2H])[2H] [Compound F61] | 0 to 25% |
| C/N=c1\c(F)cn(S(=O)(=O)c2c(C)cc(C)cc2C)c(=O)n1C [Compound F15] | 26 to 50% |
| C/N=c1\c(F)cn(S(=O)(=O)c2ccccc2OC)c(=O)n1C [Compound F8] | 76 to 100% |
| COc1ccc(S(=O)(=O)n2cc(F)/c(=N\Cc3ccccc3F)n(C)c2=O)cc1 [Compound F53] | 0 to 25% |
| C/N=c1\c(F)cn(S(=O)(=O)c2cc(C)c(Cl)cc2C)c(=O)n1C [Compound F22] | 76 to 100% |

###

Measured melting point, listed per entry.

| Molecule Smiles | melting point |
| --- | --- |
| C/N=c1\c(F)cn(S(=O)(=O)c2c(C)noc2C)c(=O)n1C | 130.1 to 131.1 °C |
| CCc1ccc(S(=O)(=O)n2cc(F)/c(=N\C(=O)Oc3ccccc3)n(C)c2=O)cc1 | 188 to 190 °C |
| Cc1cc(S(=O)(=O)n2cc(F)/c(=N\Cc3ccccc3F)n(C)c2=O)c(C)cc1Cl | 208 to 210 °C |
| Cn1c(=O)n(S(=O)(=O)c2cc(Cl)sc2Cl)cc(F)/c1=N\C(=O)Oc1ccccc1 | 158 to 159 °C |
| C/N=c1\c(F)cn(S(=O)(=O)c2ccccc2OC)c(=O)n1C | 204 to 205.4 °C |
| COC(=O)/N=c1\c(F)cn(S(=O)(=O)c2ccc(OC)cc2)c(=O)n1C | 124 to 125 °C |
| Cn1c(=O)n(S(=O)(=O)c2ccccc2)cc(F)/c1=N\C(=O)Oc1ccccc1 | 170 to 171 °C |
| Cn1c(=O)n(S(=O)(=O)c2cc(Cl)sc2Cl)cc(F)/c1=N\Cc1ccccc1F | 108 to 111 °C |

###

Measured pest or weed control at 100 ppm, listed per entry.
# Tested on: Septoria tritici
# Assay Method Text: Fungicidal activity: leaf blotch of wheat, one-day protectant and three-day curative tests on wheat plants
# Format: in vivo
# Condition Parameters: Zymoseptoria tritici, 24 h; One-Day Protectant (1 DP), 100 ppm, wheat plants (variety Yuma); read-out: SEPTTR 100 PPM 1 DP (% Disease Control rating)
Reported Metric: pest or weed control at 100 ppm

| Compound | Reported Metric | Reported Result |
| --- | --- | --- |
| CCc1ccc(S(=O)(=O)n2cc(F)/c(=N\C(C)=O)n(C)c2=O)cc1 [Compound F32] | pest or weed control at 100 ppm | 76 to 100% |
| Cc1cccc(S(=O)(=O)n2cc(F)/c(=N\Cc3ccccc3F)n(C)c2=O)c1 [Compound F57] | pest or weed control at 100 ppm | 0 to 25% |
| C/N=c1\c(F)cn(S(=O)(=O)C2CC2)c(=O)n1C [Compound F28] | pest or weed control at 100 ppm | 0 to 25% |
| C/N=c1\c(F)cn(S(=O)(=O)c2ccc(C)cc2)c(=O)n1C [Compound F3] | pest or weed control at 100 ppm | 76 to 100% |
| C/N=c1\c(F)cn(S(=O)(=O)c2cn(C)nc2C)c(=O)n1C [Compound F18] | pest or weed control at 100 ppm | 26 to 50% |
| C/N=c1\c(F)cn(S(=O)(=O)c2ccc(C)c(Cl)c2)c(=O)n1C [Compound F10] | pest or weed control at 100 ppm | 76 to 100% |
| COC(=O)/N=c1\c(F)cn(S(=O)(=O)c2ccccc2)c(=O)n1C [Compound F45] | pest or weed control at 100 ppm | 0 to 25% |
| CC(=O)/N=c1\c(F)cn(S(=O)(=O)c2cc(Cl)sc2Cl)c(=O)n1C [Compound F36] | pest or weed control at 100 ppm | 76 to 100% |
| CC(=O)/N=c1\c(F)cn(S(=O)(=O)c2ccc(C)cc2)c(=O)n1C [Compound F29] | pest or weed control at 100 ppm | 76 to 100% |
